- target: Arginase-2, mitochondrial (Homo sapiens) (UniProt P78540)
- Sequence (whole entry): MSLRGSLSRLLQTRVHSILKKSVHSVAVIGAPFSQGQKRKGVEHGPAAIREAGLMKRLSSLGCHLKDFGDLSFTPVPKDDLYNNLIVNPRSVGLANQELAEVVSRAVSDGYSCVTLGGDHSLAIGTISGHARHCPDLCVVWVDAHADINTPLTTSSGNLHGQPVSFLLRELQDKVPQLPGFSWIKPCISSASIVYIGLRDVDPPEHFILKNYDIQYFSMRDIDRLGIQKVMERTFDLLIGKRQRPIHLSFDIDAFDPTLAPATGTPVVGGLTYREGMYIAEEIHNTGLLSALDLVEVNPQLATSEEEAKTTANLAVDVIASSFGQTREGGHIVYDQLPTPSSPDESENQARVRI
- assay-details: in vitro enzyme assay to detect the production of urea directly proportional to the activity of Arginase II
- Assay type: functional
- Parameters: scale not given: in the data most compounds retested in dose-response had high values
- condition-summary: 33.3 µM
measurement-label: Percent Effect (%)
Kindly provide the numeric value in % only, without the unit symbol.

So the reported Percent Effect for CCCNC(=O)c1cc2c(nc1O)CCC(C)C2 (centres undefined) , on Arginase-2, mitochondrial (Homo sapiens) (UniProt P78540), turned out to be -13.9

Note to self: Percent Effect of "CCO[C@@H]1CO[C@@]2(CCCN(Cc3scnc3C)C2)C1" with Arginase-2, mitochondrial (Homo sapiens) (UniProt P78540) was -5.19

GET /values?item= "O=C(NCCNc1cnccn1)C1CCN(C(=O)N2CCCC2)CC1" &system= Arginase-2, mitochondrial (Homo sapiens) (UniProt P78540) returns Percent Effect: -5.81

Tested on Arginase-2, mitochondrial (Homo sapiens) (UniProt P78540): "CN1CCN(C[C@@H]2OC[C@H]3CN(Cc4cccc(F)c4)CC[C@H]32)CC1" . Observed Percent Effect: -53.9

Summary: "Clc1ccc2oc(C3CCN(Cc4cccnc4)CC3)nc2c1" , Arginase-2, mitochondrial (Homo sapiens) (UniProt P78540), Percent Effect = -10.5

Lab entry: Arginase-2, mitochondrial (Homo sapiens) (UniProt P78540) assay, compound "c1cnn(Cc2cn3c(n2)CN(Cc2nccs2)CC3)c1" , Percent Effect = 5.81

Observed Percent Effect on Arginase-2, mitochondrial (Homo sapiens) (UniProt P78540), entry CCn1ncc2c1C(COCC1CC1)CN(C(=O)c1cccs1)C2 (centres undefined) , equals -6.39

The recorded Percent Effect with Arginase-2, mitochondrial (Homo sapiens) (UniProt P78540) for Cc1ccc(CN2CC(C(=O)N3CCCC3)C3(CCOCC3)C2)s1 (centres undefined) was -54.3

Considering CCN1CCC(NC(=O)CN2CCCCC2Cn2cc(C)cn2)CC1 (centres undefined) , its Percent Effect with Arginase-2, mitochondrial (Homo sapiens) (UniProt P78540) was recorded as -11.4
